# testTarget: Alpha-1A adrenergic receptor (Homo sapiens, UniProt P35348)
# Sequence (P35348 whole entry): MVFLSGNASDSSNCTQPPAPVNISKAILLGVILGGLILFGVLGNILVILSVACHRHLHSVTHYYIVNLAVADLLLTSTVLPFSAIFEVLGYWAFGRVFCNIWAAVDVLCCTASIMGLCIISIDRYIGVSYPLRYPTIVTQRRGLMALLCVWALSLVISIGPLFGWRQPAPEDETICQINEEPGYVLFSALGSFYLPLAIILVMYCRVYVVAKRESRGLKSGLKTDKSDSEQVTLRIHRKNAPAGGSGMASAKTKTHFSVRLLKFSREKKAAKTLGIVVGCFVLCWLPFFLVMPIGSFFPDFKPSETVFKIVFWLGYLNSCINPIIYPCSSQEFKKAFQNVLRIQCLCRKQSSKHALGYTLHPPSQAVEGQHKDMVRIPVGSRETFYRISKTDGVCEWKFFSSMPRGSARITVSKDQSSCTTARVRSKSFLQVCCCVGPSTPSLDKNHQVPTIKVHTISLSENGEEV
# measurementNotes: Antagonist activity at human adrenergic alpha1A receptor assessed as intracellular calcium luminescence by cell based aequorin assay
readoutKind: Ki (nM)
Give the quantity in nM, number only.

I'd like to know its Ki. The compound in question is "C1=C(N2CCNCC2)c2nccn2Cc2ccccc21"
3.98
